Sourced from ChEMBL document CHEMBL1122170

Biological target: Angiotensin-converting enzyme (Cavia porcellus)
Experiment: Concentration required for 50% inhibition of Angiotensin I converting enzyme
Result type: IC50 (nM)

O=C(NC(Cc1ccccc1)C(=O)COCC(=O)N1CCC[C@@H]1C(=O)O)c1ccccc1 (stereo not given in full) :: 4.4

P. O=C(NC(Cc1ccccc1)C(=O)CCCC(=O)N1CCC[C@@H]1C(=O)O)c1ccccc1 (stereo not given in full)
Q. Cc1ccc(S(=O)(=O)N(CC(=O)C(Cc2ccccc2)NC(=O)c2ccccc2)CC(=O)N2CCC[C@@H]2C(=O)O)cc1 (stereo not given in full)
R. O=C(NC(Cc1ccccc1)C(=O)CSCC(=O)N1CCC[C@@H]1C(=O)O)c1ccccc1 (stereo not given in full)
S. O=C(NC(Cc1ccccc1)C(=O)CNCC(=O)N1CCC[C@@H]1C(=O)O)c1ccccc1 (stereo not given in full)
Ask: Hey, quick one: sort these by IC50, largest value first please. Present the labels in the sequence the task asks for.
Result: Q, S, P, R
